Substrate: F protein of hRSV strain Long (hRSV strain Long)
Method notes: cell-based or functional assay
Outcome: YES for RSV neutralization IC50 of at least 200 nM; NO for anything lower.

Please review the entries below; each comes with its answer.
Binder	Assigned class
Nanobody 7B2 (VHH) VHH: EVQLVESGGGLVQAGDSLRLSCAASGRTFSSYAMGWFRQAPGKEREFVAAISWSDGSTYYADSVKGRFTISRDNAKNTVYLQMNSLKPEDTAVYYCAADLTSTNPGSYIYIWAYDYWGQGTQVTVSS	NO
Nanobody 1E4 (VHH) VHH: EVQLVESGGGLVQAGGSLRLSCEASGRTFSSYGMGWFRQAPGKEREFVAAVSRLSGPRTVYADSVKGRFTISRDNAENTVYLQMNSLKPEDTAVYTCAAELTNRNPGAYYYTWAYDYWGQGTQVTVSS	YES

INPUT: Does RSV neutralization IC50 meet or surpass 200 nM for Nanobody 191D3 (VHH) VHH: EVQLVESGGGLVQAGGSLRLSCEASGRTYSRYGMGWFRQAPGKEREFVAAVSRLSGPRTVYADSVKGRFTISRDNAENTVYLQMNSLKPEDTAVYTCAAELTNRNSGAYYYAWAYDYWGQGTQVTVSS ?
OUTPUT: YES

INPUT: Does RSV neutralization IC50 meet or surpass 200 nM for Nanobody NC41 (VHH) VHH: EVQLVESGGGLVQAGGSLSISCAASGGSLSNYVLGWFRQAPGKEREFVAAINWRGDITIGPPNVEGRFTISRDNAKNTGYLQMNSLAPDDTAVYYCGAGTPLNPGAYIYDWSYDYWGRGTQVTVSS ?
OUTPUT: NO

INPUT: Does RSV neutralization IC50 meet or surpass 200 nM for Nanobody NC23 (VHH) VHH: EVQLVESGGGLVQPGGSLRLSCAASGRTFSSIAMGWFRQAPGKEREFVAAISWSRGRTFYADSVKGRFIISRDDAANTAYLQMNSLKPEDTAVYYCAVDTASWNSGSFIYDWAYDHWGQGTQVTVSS ?
OUTPUT: NO
